tested on: UniProt:P42336
test name: ADP-Glo Kinase Assay, PI3Kα enzyme activity inhibition
stated conditions: PI3Kaα IC50
pIC50: −log10 of the molar value.
readout name: pIC50

{"molecule": "Nc1cc(NC(=O)c2cc(F)cc(C(F)(F)F)c2)c2c3c1CCN3C(=O)NC2c1cc(F)ccc1C(F)(F)F (stereo not shown)", "recorded measurement": "5.00 to 6.60"}

----------
Listed here are compounds together with their documented IC50.
tested on: PI3Kα (Homo sapiens (Human))
Sequence (P42336 whole entry): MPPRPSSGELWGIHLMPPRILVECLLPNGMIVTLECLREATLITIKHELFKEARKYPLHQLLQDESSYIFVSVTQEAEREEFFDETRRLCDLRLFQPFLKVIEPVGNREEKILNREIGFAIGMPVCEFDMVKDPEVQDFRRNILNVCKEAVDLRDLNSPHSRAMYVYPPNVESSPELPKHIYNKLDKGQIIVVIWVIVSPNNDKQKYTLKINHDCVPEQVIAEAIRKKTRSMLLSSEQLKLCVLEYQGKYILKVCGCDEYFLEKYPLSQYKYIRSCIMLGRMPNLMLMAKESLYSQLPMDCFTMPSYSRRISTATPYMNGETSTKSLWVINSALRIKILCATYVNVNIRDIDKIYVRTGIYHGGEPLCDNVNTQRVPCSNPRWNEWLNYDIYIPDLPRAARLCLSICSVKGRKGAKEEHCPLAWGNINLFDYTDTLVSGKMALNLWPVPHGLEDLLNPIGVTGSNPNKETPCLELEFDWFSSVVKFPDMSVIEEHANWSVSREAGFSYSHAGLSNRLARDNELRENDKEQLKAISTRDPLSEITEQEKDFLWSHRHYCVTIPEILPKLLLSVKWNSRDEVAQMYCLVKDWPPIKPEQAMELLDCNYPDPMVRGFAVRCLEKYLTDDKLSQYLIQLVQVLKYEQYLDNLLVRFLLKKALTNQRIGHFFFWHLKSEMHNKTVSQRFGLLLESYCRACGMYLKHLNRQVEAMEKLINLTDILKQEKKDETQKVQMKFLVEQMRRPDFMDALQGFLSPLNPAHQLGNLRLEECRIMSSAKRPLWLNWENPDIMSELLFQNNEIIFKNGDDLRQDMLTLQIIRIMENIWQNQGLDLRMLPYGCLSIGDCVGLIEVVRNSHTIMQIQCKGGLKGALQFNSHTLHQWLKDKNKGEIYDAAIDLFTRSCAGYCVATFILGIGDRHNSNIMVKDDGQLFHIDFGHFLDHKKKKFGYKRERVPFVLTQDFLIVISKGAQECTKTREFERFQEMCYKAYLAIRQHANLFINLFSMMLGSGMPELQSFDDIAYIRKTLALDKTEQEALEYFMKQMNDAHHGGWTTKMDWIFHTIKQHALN
Sequence (P27986 whole entry partner): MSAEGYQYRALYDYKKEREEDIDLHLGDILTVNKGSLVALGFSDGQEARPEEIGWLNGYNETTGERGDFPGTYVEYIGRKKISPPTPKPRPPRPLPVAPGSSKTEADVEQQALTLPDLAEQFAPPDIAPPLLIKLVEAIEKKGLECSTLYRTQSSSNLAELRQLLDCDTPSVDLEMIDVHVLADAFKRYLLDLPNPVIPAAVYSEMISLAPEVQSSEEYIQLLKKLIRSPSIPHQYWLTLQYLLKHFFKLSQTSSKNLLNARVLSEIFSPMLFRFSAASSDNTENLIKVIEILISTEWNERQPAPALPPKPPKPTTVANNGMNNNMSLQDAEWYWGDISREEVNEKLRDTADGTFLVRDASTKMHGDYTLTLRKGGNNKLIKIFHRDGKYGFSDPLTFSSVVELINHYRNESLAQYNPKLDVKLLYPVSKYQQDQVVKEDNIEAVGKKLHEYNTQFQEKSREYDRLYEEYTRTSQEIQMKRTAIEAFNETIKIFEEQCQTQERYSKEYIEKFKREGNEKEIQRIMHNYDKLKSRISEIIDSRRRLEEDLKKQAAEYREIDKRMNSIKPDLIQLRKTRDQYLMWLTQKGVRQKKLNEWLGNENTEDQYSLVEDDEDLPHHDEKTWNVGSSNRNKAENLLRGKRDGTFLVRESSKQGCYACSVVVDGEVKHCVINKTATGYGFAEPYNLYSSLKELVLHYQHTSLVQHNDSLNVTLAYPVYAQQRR
test name: ADP-Glo Kinase Assay, PI3Kα enzyme activity inhibition
stated conditions: PI3Kaα IC50, ADP-Glo; ATP 25 μM; PIP2 50 μg/mL; 1 hour at room temperature

{"compound": "Cn1nc2c(C#N)cc(NC(=O)c3cc(F)cc(C(F)(F)F)c3)c3c2c1C(=O)NC3c1cc(F)ccc1Cl (single isomer, unassigned) [YL102-P2]", "tested on": "PI3Kα (Homo sapiens (Human))", "IC50": "> 10 µM"}
{"compound": "N#Cc1c(-c2cc(NC(=O)c3cc(F)cc(C(F)(F)F)c3)c3c4c2CCN4C(=O)NC3c2cc(Cl)ccc2Cl)ccc2ncnn12 (single isomer, unassigned) [YL109-P2]", "tested on": "PI3Kα (Homo sapiens (Human))", "IC50": "> 10 µM"}
{"compound": "N=C(N)Nc1cc(NC(=O)c2cc(F)cc(C(F)(F)F)c2)c2c3c1CCN3C(=O)NC2c1cc(F)ccc1Cl (stereo not drawn) [YL088]", "tested on": "PI3Kα (Homo sapiens (Human))", "IC50": "0.25 to 10 µM"}
{"compound": "Nc1cc(-c2nc3cc(Cl)c(Cl)cc3[nH]2)c2c3c1CCN3C(=O)NC2c1cc(F)ccc1Cl (stereo not drawn) [YL100]", "tested on": "PI3Kα (Homo sapiens (Human))", "IC50": "0.25 to 10 µM"}
{"compound": "O=C(Nc1cc(Br)c2c3c1C(c1cc(F)ccc1Cl)NC(=O)N3CC2)c1cc(F)cc(C(F)(F)F)c1 (single isomer, unassigned) [YL079-P2]", "tested on": "PI3Kα (Homo sapiens (Human))", "IC50": "0.25 to 10 µM"}
{"compound": "N#Cc1c(-c2cc(NC(=O)c3cc(F)cc(C(F)(F)F)c3)c3c4c2CCN4C(=O)NC3c2cc(F)ccc2Cl)ccc2ncnn12 (single isomer, unassigned) [YL108-P2]", "tested on": "PI3Kα (Homo sapiens (Human))", "IC50": "> 10 µM"}

----------
tested on: PI3Kα (Homo sapiens (Human))
test name: ADP-Glo Kinase Assay, PI3Kα enzyme activity inhibition
stated conditions: PI3Kaα IC50, ADP-Glo; ATP 25 μM; PIP2 50 μg/mL; 1 hour at room temperature
pIC50: −log10 of the molar value.

{"compound": "Nc1cc(Nc2nccc3c(C(F)(F)F)cc(F)cc23)c2c3c1CCN3C(=O)NC2c1cc(F)ccc1Cl (stereo not drawn)", "pIC50": "5.00 to 6.60"}
{"compound": "Nc1cc(-c2nc3cc(Cl)ccc3[nH]2)c2c3c1CCN3C(=O)NC2c1cc(F)ccc1Cl (stereo not drawn)", "pIC50": "5.00 to 6.60"}
{"compound": "N#Cc1cc(NC(=O)c2cc(F)cc(C(F)(F)F)c2)c2c3c1CCN3C(=O)NC2c1cc(Cl)ccc1Cl (single isomer, unassigned) [YL101-P1]", "pIC50": "< 5.00"}
{"compound": "O=C(Nc1cc(Br)c2c3c1C(c1cc(F)ccc1Cl)NC(=O)N3CC2)c1cc(F)cc(C(F)(F)F)c1 (single isomer, unassigned) [YL079-P1]", "pIC50": "< 5.00"}
{"compound": "O=C(Nc1cc(Br)c2c3c1C(c1cc(Cl)ccc1Cl)NC(=O)N3CC2)c1cc(F)cc(C(F)(F)F)c1 (stereo not drawn)", "pIC50": "5.00 to 6.60"}
{"compound": "N#Cc1c(-c2cc(NC(=O)c3cc(F)cc(C(F)(F)F)c3)c3c4c2CCN4C(=O)NC3c2cc(F)ccc2Cl)cc(F)c2ncnn12 (stereo not drawn)", "pIC50": "< 5.00"}
